Target: T1, monkey GPC3-His protein (monkey)
T1 construct: Bought recombinant protein; also called monkey GPC3 protein
Method Description: ELISA, monkey GPC3-His coated;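 also: Plate-coated antigen at 1 µg/mL, antibody binding 2 h at 37 °C, detected with HRP-labeled secondary antibody and TMB, absorbance at 450 nm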
Listed below: OD450 at 0.1 nM values for each entry.
Quick reminder: number only, in OD450, skip the unit.

[[record]]
binder = "F2.154.1 (antibody, human IgG1, kappa, V domains shown, Human-murine chimeric antibody) VH: QVQLQQSGAELVRPGASVKLSCKASGYRFTDYEMHWVKQTPVHGLEWIGTIDPETGNTAYTQKFMDKATLTADKSSSTAYMELRSLTSEDSAVYYCTRGYSFTYWGQGTLATVSA VL: DVLMTQTPLSLPVSLGDQASISCRSSQNIVHSNGNTYLQWYLQKPGQSPKLLIFKVSNRFSGVPDRFSGSGSGTDFTLKISRVEAEDLGVYYCFQGSHVPFTFGTGTKLEIKR"
measured_quantity = "OD450 at 0.1 nM"
observed = 1.69

[[record]]
binder = "F4.26.1 (antibody, human IgG1, kappa, V domains shown, Human-murine chimeric antibody) VH: QVQLKQSGPGLVQPSQSLSITCTVSGFSLTSYGVHWVRQSPGKGLEWLGVIWSSGNTDYNAVLISRLSIKKDDSKSQVFFKMNSPQVDDSAIYYCGRNGGWLLRGFMDFWGQGTSVTVSS VL: DVVMTQTPLSLPVSLGDQASISCRSSQSLLHSNGNTYLHWYLQRSGQSPNLLIYKVSNRFSGVPDRFSGGGSGTDFTLKISRVEAEDLGIYFCSQSTHVPWTFGGGTKLEIKR"
measured_quantity = "OD450 at 0.1 nM"
observed = 0.89

[[record]]
binder = "F1.9.19 (antibody, human IgG1, kappa, V domains shown, Human-murine chimeric antibody) VH: DVQLQESGPGLVKPSQSLSLTCSVTGYSITSGYYWNWIRQFPGNRLEWMAYISYDGINNYNPSLKNRISIARDTSTNQFFLKLNSVTSEDTATYYCATTTEVALFDHWGQGTTLTVSS VL: DVLLTQTPLSLPVSLGDQASISCRSSQNIVHGNGNTYLEWFLQKPGQSPKLLIYKVSNRFSGVPDRFSGSGSGTDFTLKISRVEAEDLGLYYCFQASHVPWTFGGGTKLEIKR"
measured_quantity = "OD450 at 0.1 nM"
observed = 0.72

[[record]]
binder = "F1.2.14 (antibody, human IgG1, kappa, V domains shown, Human-murine chimeric antibody) VH: RVQLQQSGAELVKPGASVRMSCKASGYTFTAYSIEWMKQNLGKSLEWIGNFRPYNDDTKYNENFKGRATLTVEKSSATVYLELSRLTSDDSAVYYCARSGPTDYFDYWGQGTTLIVSS VL: DIQMTQSPASLSASVGETVTITCRASDNIYSYLAWYQQKQGQSPQLLVYNAKTLAEGVPSRFSGSGSVTQFSLKIISLQPEDFGTYYCQHHFGTPRTFGGGTKLEIKR"
measured_quantity = "OD450 at 0.1 nM"
observed = 0.27

[[record]]
binder = "F1.92.17 (antibody, human IgG1, kappa, V domains shown, Human-murine chimeric antibody) VH: EVQLQQSGPELVKPGASVKMSCKASGYTFTDYNMHWVRQSHGKSLEWIGYINPNNGDTIYNQNFKGKATLTVNKSSSTAYMELRSLTSEDSAVYYCSRTITYYYSMDYWGPGTSVTVSS VL: QIVLTQSPALMSASPGEKVTMTCSASSSVSYMYWYQQKPRSSPKPWIYLTSNLASGVPARFSGSGSGTSYSLTISSMEAEDAATYYCQQWSSNPLTFGAGTKLELKR"
measured_quantity = "OD450 at 0.1 nM"
observed = 0.15


Using the record for F1.136.7 (antibody, human IgG1, kappa, V domains shown, Human-murine chimeric antibody) VH: EVQLQQSGPVMVKPGPSVKISCQTSGFTFTDYYIHWVKQSHGKSLEWIGLVFPYDGGTNYNQKFKDKATLTLDTSSSTAYMELNSLTSEDSAVYYCARAGGFSYALNYWGQGTSVTVSS VL: DIQMTQSPSSLSASLGGKVTITCKASQDINNYIAWYQHKPGKGPRLLIHFTSTLQPGIPSRFSGSGSGRDYSFSISNLEPEDIATYYCLQYDNLLLTFGAGTKLELKR , report its OD450 at 0.1 nM.
0.62

I am curious: what OD450 at 0.1 nM value has been reported for F1.111.11 (antibody, human IgG1, kappa, V domains shown, Human-murine chimeric antibody) VH: EVQLQQSGPELVKPGASVKISCKASGYTFTDYYMNWVKQSHGKSLEWIGDIYPNNGDTTYNQRFKGKATLTVDKSSSTAYMELRSLASEDSAVYYCACPYNNPFGYWGQGTLVTVSA VL: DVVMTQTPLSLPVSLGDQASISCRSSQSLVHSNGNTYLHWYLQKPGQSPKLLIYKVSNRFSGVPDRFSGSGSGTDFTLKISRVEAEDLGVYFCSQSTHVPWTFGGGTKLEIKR ?
1.91

Look up OD450 at 0.1 nM for this binder: F1.153.1 (antibody, human IgG1, kappa, V domains shown, Human-murine chimeric antibody) VH: QIQLVQSGPELKKPGETVKISCKASGYTFTTAGMQWVQKMPGKGFKWIGWINTHSGEPQYAEDFKGRFAFSLETSASTAYLQISNLKNEDTATYFCARSFYYHGSSFFYFDYWGQGTTLTVSS VL: DIVMTQSQKFMSTTVGDRVSITCKASQNVGTAVAWYQQKPGQSPKLLIYSASNRYTGVPDRFTGSGSGADFTLTISNMQSEDLADYFCQQYSRYPLTFGAGTKLELKR
1.06

All values here come from patent US20260116991A1.
